- assay-notes: Aqueous solubility of the compound
- Assay type: physicochemical
- recorded-conditions: water
quantity-measured: solubility

- smiles-text: "O=C(CN1C(=O)C2(CCN(C(=O)c3ccc4[nH]ncc4n3)CC2)c2c(Br)cccc21)NCC(F)(F)F"
  val: "103 µg/mL"
- smiles-text: "CNC(=O)CN1CN(c2ccccc2)C2(CCN(C(=O)c3ccc4[nH]ncc4c3)CC2)C1=O"
  val: "1.4 µg/mL"

Provenance of the data: ChEMBL document CHEMBL4610064
